These measurements were taken from ChEMBL document CHEMBL5291721.

// endpoint AC50 / system Motilin receptor (Homo sapiens, UniProt O43193); further: assay procedure not described here

Exam item: So what AC50 did CC(C(=O)O)c1ccc(CC2CCCC2=O)cc1 (centres undefined) get with Motilin receptor (Homo sapiens, UniProt O43193)?
Marked response: > 30 µM

Exam item: Form: Entry = CN(C)CC[C@@H](c1ccc(Cl)cc1)c1ccccn1 | System = Motilin receptor (Homo sapiens, UniProt O43193) | AC50 = ____; further: assay procedure not described here
Marked response: > 30 µM

Exam item: GET /values?readout=AC50&system=Motilin receptor (Homo sapiens, UniProt O43193)&item= CCC(C)C(CC)C(N)=O (centres undefined) [VALNOCTAMIDE]; further: assay procedure not described here
Marked response: > 30 µM

Exam item: GET /values?readout=AC50&system=Motilin receptor (Homo sapiens, UniProt O43193)&item= CC(=O)O[C@H](CC(=O)[O-])C[N+](C)(C)C; further: assay procedure not described here
Marked response: > 30 µM

Exam item: Param readout= AC50; system= Motilin receptor (Homo sapiens, UniProt O43193); entry= CC(C)NCC(O)c1ccc(O)c(O)c1 (centres undefined) ; returns value. Further: assay procedure not described here.
Marked response: > 10 µM

Exam item: AC50 of CCCCCC(=O)O[C@]1(C(C)=O)CC[C@H]2[C@@H]3CCC4=CC(=O)CC[C@]4(C)[C@H]3CC[C@@]21C [HYDROXYPROGESTERONE CAPROATE] on Motilin receptor (Homo sapiens, UniProt O43193)?
Marked response: 28.1 µM

Exam item: Form: Entry = CC(C)(C)NCC(O)c1cc(O)cc(O)c1 (centres undefined) | System = Motilin receptor (Homo sapiens, UniProt O43193) | AC50 = ____; further: assay procedure not described here
Marked response: > 30 µM

Exam item: Find AC50 (Motilin receptor (Homo sapiens, UniProt O43193)) for the entry CC(CCc1ccc(O)cc1)NCCc1ccc(O)c(O)c1 (centres undefined)
Marked response: > 30 µM

Exam item: Give Motilin receptor (Homo sapiens, UniProt O43193) AC50 for CCN(CC)C(=O)Nc1ccc(OCC(O)CNC(C)(C)C)c(C(C)=O)c1 (centres undefined)
Marked response: > 30 µM
